Recorded values, source patent US9170266B2.

Listed here are compounds together with their documented Oxidation potential (V vs SCE).
- Measurement Protocol: Oxidation potential of the benzene ring moiety
- Format: physicochemical
- Conditions: vs saturated calomel electrode (SCE)

Smiles Data: COc1ccccc1C1=C2C=CC(=O)C=C2[Si](C)(C)c2cc(O)ccc21
Unit Abbrev: V vs SCE
Oxidation potential (V vs SCE): 1.75
--
Smiles Data: Cc1ccc(C)c(C2=C3C=CC(=O)C=C3[Si](C)(C)c3cc(O)ccc32)c1
Unit Abbrev: V vs SCE
Oxidation potential (V vs SCE): 1.98
--
Smiles Data: COc1ccc(OC)c(C2=C3C=CC(=O)C=C3[Si](C)(C)c3cc(O)ccc32)c1
Unit Abbrev: V vs SCE
Oxidation potential (V vs SCE): 1.26
--
Smiles Data: Cc1ccccc1C1=C2C=CC(=O)C=C2[Si](C)(C)c2cc(O)ccc21
Unit Abbrev: V vs SCE
Oxidation potential (V vs SCE): 2.19
--
Smiles Data: Cc1ccc(C2=C3C=CC(=O)C=C3[Si](C)(C)c3cc(O)ccc32)c(C)c1
Unit Abbrev: V vs SCE
Oxidation potential (V vs SCE): 2.08
--
Smiles Data: COc1ccc(C)cc1C1=C2C=CC(=O)C=C2[Si](C)(C)c2cc(O)ccc21
Unit Abbrev: V vs SCE
Oxidation potential (V vs SCE): 1.57

====

Listed here are compounds together with their documented Φfl.
- Measurement Protocol: Optical characteristics in 0.1 M phosphate buffer containing 1% DMSO, Table 3
- Assay type: physicochemical
- Conditions: 0.1 M phosphate buffer (pH 9); standard 2-Me TokyoMagenta (0.42)
Property Measured: Φfl

Smiles Data: C[Si]1(C)C2=C(Cl)C(=O)C=CC2=C(c2ccccc2C(=O)O)c2ccc(O)c(Cl)c21
Property Measured: Φfl
Result: 0.48
//
Smiles Data: C[Si]1(C)C2=C(F)C(=O)C=CC2=C(c2ccccc2C(=O)O)c2ccc(O)c(F)c21
Property Measured: Φfl
Result: 0.54
//
Smiles Data: Cc1ccccc1C1=C2C=CC(=O)C(F)=C2[Si](C)(C)c2c1ccc(O)c2F
Property Measured: Φfl
Result: 0.57
//
Smiles Data: Cc1ccccc1C1=C2C=CC(=O)C=C2[Si](C)(C)c2cc(O)ccc21
Property Measured: Φfl
Result: 0.42
//
Smiles Data: C[Si]1(C)C2=CC(=O)C=CC2=C(c2ccccc2C(=O)O)c2ccc(O)cc21
Property Measured: Φfl
Result: 0.38
//
Smiles Data: Cc1ccccc1C1=C2C=CC(=O)C(Cl)=C2[Si](C)(C)c2c1ccc(O)c2Cl
Property Measured: Φfl
Result: 0.48

====

- Measurement Protocol: Optical characteristics in 0.1 M phosphate buffer containing 1% DMSO, Table 3
- Format: physicochemical
- Conditions: pH 9; 0.1 M phosphate buffer containing 1% DMSO

Smiles Data: Cc1ccccc1C1=C2C=CC(=O)C(F)=C2[Si](C)(C)c2c1ccc(O)c2F
λmax,abs pH 9: 583 nm
//
Smiles Data: C[Si]1(C)C2=C(F)C(=O)C=CC2=C(c2ccccc2C(=O)O)c2ccc(O)c(F)c21
λmax,abs pH 9: 581 nm
//
Smiles Data: Cc1ccccc1C1=C2C=CC(=O)C=C2[Si](C)(C)c2cc(O)ccc21
λmax,abs pH 9: 582 nm
//
Smiles Data: Cc1ccccc1C1=C2C=CC(=O)C(Cl)=C2[Si](C)(C)c2c1ccc(O)c2Cl
λmax,abs pH 9: 595 nm
//
Smiles Data: C[Si]1(C)C2=C(Cl)C(=O)C=CC2=C(c2ccccc2C(=O)O)c2ccc(O)c(Cl)c21
λmax,abs pH 9: 591 nm
//
Smiles Data: C[Si]1(C)C2=CC(=O)C=CC2=C(c2ccccc2C(=O)O)c2ccc(O)cc21
λmax,abs pH 9: 582 nm

====

Listed here are compounds together with their documented λmax,fl.
- Measurement Protocol: Optical characteristics in 0.1 M phosphate buffer containing 1% DMSO, Table 3
- Assay type: physicochemical
- Conditions: 0.1 M phosphate buffer (pH 9) containing 1% DMSO

Compound: C[Si]1(C)C2=C(Cl)C(=O)C=CC2=C(c2ccccc2C(=O)O)c2ccc(O)c(Cl)c21 [2-COOH DCTM]
λmax,fl [nm]: 607

Compound: Cc1ccccc1C1=C2C=CC(=O)C(Cl)=C2[Si](C)(C)c2c1ccc(O)c2Cl [2-Me DCTM]
λmax,fl [nm]: 607

Compound: C[Si]1(C)C2=C(F)C(=O)C=CC2=C(c2ccccc2C(=O)O)c2ccc(O)c(F)c21 [2-COOH DFTM]
λmax,fl [nm]: 596

Compound: Cc1ccccc1C1=C2C=CC(=O)C(F)=C2[Si](C)(C)c2c1ccc(O)c2F [2-Me DFTM]
λmax,fl [nm]: 598

Compound: C[Si]1(C)C2=CC(=O)C=CC2=C(c2ccccc2C(=O)O)c2ccc(O)cc21 [2-COOH TM]
λmax,fl [nm]: 598

Compound: Cc1ccccc1C1=C2C=CC(=O)C=C2[Si](C)(C)c2cc(O)ccc21 [2-Me TM, 2-Me TokyoMagenta]
λmax,fl [nm]: 598
